- study.system: Human PARP-1 enzyme (Homo sapiens, UniProt P09874)
- Construct: purchased Trevigen
- Sequence (P09874 whole entry): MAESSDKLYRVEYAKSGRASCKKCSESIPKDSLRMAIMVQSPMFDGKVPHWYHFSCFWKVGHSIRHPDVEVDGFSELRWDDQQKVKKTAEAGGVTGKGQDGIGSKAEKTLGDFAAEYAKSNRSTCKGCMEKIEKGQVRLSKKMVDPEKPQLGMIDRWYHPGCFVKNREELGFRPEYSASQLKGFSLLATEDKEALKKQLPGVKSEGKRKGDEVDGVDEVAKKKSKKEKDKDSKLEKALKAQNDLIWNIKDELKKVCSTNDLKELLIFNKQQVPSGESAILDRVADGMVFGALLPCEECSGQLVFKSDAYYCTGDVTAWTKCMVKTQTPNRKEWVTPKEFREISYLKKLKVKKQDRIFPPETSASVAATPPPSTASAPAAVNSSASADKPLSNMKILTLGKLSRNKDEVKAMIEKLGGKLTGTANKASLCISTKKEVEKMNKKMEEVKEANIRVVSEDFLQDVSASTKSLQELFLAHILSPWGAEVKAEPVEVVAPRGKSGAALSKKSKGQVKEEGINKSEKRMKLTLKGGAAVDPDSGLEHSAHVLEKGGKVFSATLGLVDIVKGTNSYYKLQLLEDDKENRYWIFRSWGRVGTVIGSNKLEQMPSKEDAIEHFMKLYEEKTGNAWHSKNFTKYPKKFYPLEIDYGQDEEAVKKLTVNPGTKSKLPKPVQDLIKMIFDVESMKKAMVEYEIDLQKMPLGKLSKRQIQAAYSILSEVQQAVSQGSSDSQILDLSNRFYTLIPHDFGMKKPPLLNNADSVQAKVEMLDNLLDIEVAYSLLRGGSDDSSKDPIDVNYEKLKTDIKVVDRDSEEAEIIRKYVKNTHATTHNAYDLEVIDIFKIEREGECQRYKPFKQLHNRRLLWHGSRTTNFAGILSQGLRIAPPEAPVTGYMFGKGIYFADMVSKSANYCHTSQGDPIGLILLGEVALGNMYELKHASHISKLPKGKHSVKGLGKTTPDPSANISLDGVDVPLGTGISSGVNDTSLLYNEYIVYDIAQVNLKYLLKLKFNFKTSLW
- protocol.details: In vitro Scintillation Proximity Assay (SPA) for PARP-1 inhibitory activity
- Assay type: biochemical
- condition.set: read-out: in vitro SPA assay PARP-1 pIC50 (converted)
Under this convention, Criterion met denotes IC50 strictly below 60 nM and Criterion not met denotes IC50 at or above 60 nM.

Here's what some known entries look like.
Please let me know if CCc1cc2ccc(C(C)(C#N)Cc3ccc(C#N)cc3)cc2[nH]c1=O (centres unmarked) shows IC50 below 60 nM.
Criterion not met

Please let me know if CCc1cc2ccc(C(C)(C#N)Cc3cc(Br)cc(Br)c3)cc2[nH]c1=O (centres unmarked) shows IC50 below 60 nM.
Criterion not met

Please let me know if CCc1cc2ccc(C(C)(C#N)Cc3nc(OC)cc(N(C)C)n3)cc2[nH]c1=O (centres unmarked) shows IC50 below 60 nM.
Criterion met

Further cases:
Please let me know if CCc1cc2ccc(C(C)(C#N)Cc3cccc(C#CCO)c3)cc2[nH]c1=O (centres unmarked) shows IC50 below 60 nM.
Criterion not met

Please let me know if CCc1cc2ccc(C(C)(C#N)Cc3ccccc3Br)cc2[nH]c1=O (centres unmarked) shows IC50 below 60 nM.
Criterion not met
